System: MM.1S
Assay: Half inhibitory concentration (IC50) against tumor cells, Cell Counting Kit-8
Format: cell-based
Settings: Homo sapiens, MM1.S, CCK-8, 96 h treatment, read-out: inhibitory activity (IC50, nM) against tumor cells proliferation
Below is a list of entries, each paired with its recorded IC50 value.

- molecule: "O=C1CCC(N2Cc3cc(OC4CCN(C(=O)c5ccccc5-c5ccc(Cl)cc5)CC4)ccc3C2=O)C(=O)N1 (stereo not shown) [GT-06204]"
  IC50: "10 to 50 nM"
- molecule: "O=C1CCC(N2Cc3cc(SC4CN(Cc5ccccc5-c5ccc(Cl)cc5)C4)ccc3C2=O)C(=O)N1 (stereo not shown) [GT-03360]"
  IC50: "100 to 500 nM"
- molecule: "Nc1cccc2c1C(=O)N(C1CCC(=O)NC1=O)C2=O (stereo not shown) [pomalidomide, reference compound]"
  IC50: "500 to 1000 nM"
- molecule: "O=C1CCC(N2Cc3cc(SC4CCN(C(=O)c5ccccc5-c5ccc(Cl)cc5)CC4)ccc3C2=O)C(=O)N1 (stereo not shown) [GT-06182]"
  IC50: "10 to 50 nM"
